target: Protein phosphatase 1A (Homo sapiens); assay: Inhibition of recombinant human PPM1A using pNPP as substrate preincubated for 15 mins followed by substrate addition measured after 20 mins by absorbance based assay
MEASURE NAME: IC50

[
  {
    "COMPOUND": "COc1ccc2c(c1)c[n+](CCO)c1ccc(F)cc21.[Br-]",
    "EXPERIMENTAL TARGET": "Protein phosphatase 1A (Homo sapiens)",
    "IC50": "1.19 µM"
  },
  {
    "COMPOUND": "COc1ccc(-c2cc3c(cc2OC)c[n+](CCO)c2ccc(F)cc32)cc1",
    "EXPERIMENTAL TARGET": "Protein phosphatase 1A (Homo sapiens)",
    "IC50": "0.29 µM"
  }
]

Entry COC(=O)c1cccc(-c2cc3c(cc2OC)c[n+](CCO)c2ccc(F)cc32)c1 ; IC50 = > 20 µM

Field IC50 (entry COc1ccc2c(c1)c[n+](NCCO)c1ccc(F)cc21 ) reads > 10 µM

response.value for CCOc1ccc2c(c1)c1ccc(OC)cc1c[n+]2CCO (field: IC50) = > 20 µM

----------
assay: Clearance in ICR mouse at 2 mg/kg, iv measured for 24 hrs; format: ADME, organism-based; settings: in vivo
MEASURE NAME: clearance (mL/min/kg)
Answer format: numeric, mL/min/kg implied, no suffix.

The reported clearance of the compound CCOc1ccc2c(c1)c[n+](CCO)c1ccc(F)cc21.[Br-] was 170

----------
Listed here are molecules together with their documented pIC50.
target: Protein phosphatase 1A (Homo sapiens); test: Inhibition of recombinant human PPM1A using pNPP as substrate preincubated for 15 mins followed by substrate addition measured after 20 mins by absorbance based assay
pIC50: −log10 of the molar value.

According to the records, this molecule COc1cc2c[n+](CCO)c3ccc(F)cc3c2cc1-c1cc(C)cc(C)c1 displays pIC50 of < 4.70

----------
experiment: Cytotoxicity against human THP-1 cells by resazurin dye based assay; assay type: toxicity, cell-based
MEASURE NAME: CC50 (µM)
Please state the figure in µM; there is no need to write the unit.

[
  {
    "COMPOUND": "COc1ccc2c(c1)c[n+](CCO)c1ccc(OC)cc21",
    "CC50 (µM)": 47.2
  },
  {
    "COMPOUND": "COc1ccc2c(c1)c[n+](CCO)c1ccc(F)cc21.[Br-]",
    "CC50 (µM)": 94.8
  },
  {
    "COMPOUND": "CCOc1ccc2c(c1)c[n+](CCO)c1ccc(F)cc21.[Br-]",
    "CC50 (µM)": 138
  }
]

The recorded CC50 for entry COc1ccc2c(c1)c[n+](CCO)c1ccc(Br)cc21 equals 68

The compound listed as COc1ccc(-c2cc3c(cc2OC)c[n+](CCO)c2ccc(F)cc32)cc1 shows CC50 equal to 37.2

----------
assay: AUClast in ICR mouse at 2 mg/kg, iv measured for 24 hrs; type: ADME, organism-based; conditions: in vivo
MEASURE NAME: AUC(0-t) at 24 h (ng·h/mL)
Please give a number only; it is taken to be in ng·h/mL.

Field AUC(0-t) at 24 h (entry CCOc1ccc2c(c1)c[n+](CCO)c1ccc(F)cc21.[Br-] ) reads 206

----------
assay: Half life in ICR mouse at 10 mg/kg, po measured for 24 hrs; format: ADME, organism-based; settings: in vivo
MEASURE NAME: half-life (min)
Report the value in min with no unit label.

For record CCOc1ccc2c(c1)c[n+](CCO)c1ccc(F)cc21.[Br-] the listed half-life is 46.3

----------
test: Oral bioavailability in ICR mouse at 10 mg/kg measured for 24 hrs; format: ADME, organism-based; conditions: in vivo
MEASURE NAME: bioavailability (%)
Please respond with the number in % and leave the unit unwritten.

Value of measured bioavailability for the entry CCOc1ccc2c(c1)c[n+](CCO)c1ccc(F)cc21.[Br-] : 73.7

----------
test: Half life in ICR mouse at 2 mg/kg, iv measured for 24 hrs; assay type: ADME, organism-based; settings: in vivo
MEASURE NAME: half-life (min)
Please give a number only; it is taken to be in min.

Summary for this compound, CCOc1ccc2c(c1)c[n+](CCO)c1ccc(F)cc21.[Br-] : half-life is 38

----------
assay: Tmax in ICR mouse at 10 mg/kg, po measured for 24 hrs; assay type: ADME, organism-based; details: in vivo
MEASURE NAME: Tmax (min)
Give the number; min is assumed, so skip it.

Per the records, this compound ( CCOc1ccc2c(c1)c[n+](CCO)c1ccc(F)cc21.[Br-] ) has Tmax equal to 15

----------
target: Protein phosphatase 1A (Homo sapiens, UniProt P35813); test: Inhibition of PPM1A (unknown origin)
Sequence (P35813 whole entry): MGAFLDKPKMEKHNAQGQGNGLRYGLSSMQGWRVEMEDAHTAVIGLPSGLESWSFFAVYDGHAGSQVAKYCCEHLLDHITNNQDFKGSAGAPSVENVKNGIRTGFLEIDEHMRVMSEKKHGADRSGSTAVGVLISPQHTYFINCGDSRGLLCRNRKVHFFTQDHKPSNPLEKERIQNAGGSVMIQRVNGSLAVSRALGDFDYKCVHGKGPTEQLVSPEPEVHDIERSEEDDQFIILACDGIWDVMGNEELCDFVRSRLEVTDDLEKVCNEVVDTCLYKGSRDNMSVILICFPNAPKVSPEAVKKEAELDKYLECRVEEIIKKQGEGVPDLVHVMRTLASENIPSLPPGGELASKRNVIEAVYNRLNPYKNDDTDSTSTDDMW
MEASURE NAME: Ki (nM)
Return type: number; implicit unit nM.

Lookup result for COc1ccc2c(c1)c[n+](CCO)c1ccc(F)cc21.[Br-] ; measured Ki: 840

----------
experiment: AUClast in ICR mouse at 10 mg/kg, po measured for 24 hrs; type: ADME, organism-based; settings: in vivo
MEASURE NAME: AUC(0-t) at 24 h (ng·h/mL)
Your answer is read as ng·h/mL, so omit the unit and give the number.

Form field AUC(0-t) at 24 h, entry CCOc1ccc2c(c1)c[n+](CCO)c1ccc(F)cc21.[Br-] : 759

----------
target: Protein phosphatase 1A (Homo sapiens, UniProt P35813); assay: Inhibition of recombinant human PPM1A using pNPP as substrate preincubated for 15 mins followed by substrate addition measured after 20 mins by absorbance based assay
Parameter: IC50. Scope: all listed entries.

Answered cases to consult:
[
  {
    "COMPOUND": "COc1ccc2c(c1)c[n+](CCCCO)c1ccc(F)cc21",
    "IC50": "> 20 µM"
  },
  {
    "COMPOUND": "COc1ccc2c(c1)c[n+](C(C)CO)c1ccc(F)cc21 (stereo not drawn)",
    "IC50": "> 10 µM"
  }
]

Would you kindly look at the next entry?
Short answer for CCOc1ccc2c(c1)c[n+](CCO)c1ccc(OC)cc21 : IC50 was > 20 µM

----------
assay: Cytotoxicity against human Caco-2 cells by resazurin dye based assay; type: toxicity, cell-based
MEASURE NAME: CC50

Known CC50 results, listed for orientation:
[
  {
    "COMPOUND": "COc1ccc2c(c1)c[n+](CCO)c1ccc(Br)cc21",
    "CC50": "185 µM"
  },
  {
    "COMPOUND": "COc1ccc(-c2cc3c(cc2OC)c[n+](CCO)c2ccc(F)cc32)cc1",
    "CC50": "74.6 µM"
  },
  {
    "COMPOUND": "COc1ccc2c(c1)c[n+](CCO)c1ccc(F)cc21.[Br-]",
    "CC50": "> 200 µM"
  },
  {
    "COMPOUND": "CCOc1ccc2c(c1)c[n+](CCO)c1ccc(F)cc21.[Br-]",
    "CC50": "> 200 µM"
  },
  {
    "COMPOUND": "OCC[n+]1cc2cc(OC(F)(F)F)ccc2c2cc(F)ccc21",
    "CC50": "> 200 µM"
  }
]

Then this compound:
Record summary for COc1ccc2c(c1)c[n+](CCO)c1ccc(OC)cc21 : reported CC50 = > 200 µM

----------
experiment: AUC (infinity) in ICR mouse at 2 mg/kg, iv measured for 24 hrs; type: ADME, organism-based; conditions: in vivo
MEASURE NAME: AUC(0-inf) (ng·h/mL)
Please state the figure in ng·h/mL; there is no need to write the unit.

// recorded AUC(0-inf) for CCOc1ccc2c(c1)c[n+](CCO)c1ccc(F)cc21.[Br-] : 208

----------
target: Protein phosphatase 1A (Homo sapiens); assay: Inhibition of PPM1A (unknown origin)
MEASURE NAME: IC50 (nM)
// units = nM; emit number, no label

Lookup result for COc1ccc2c(c1)c[n+](CCO)c1ccc(F)cc21.[Br-] ; measured IC50: 1190

----------
biological target: Protein phosphatase 1A (Homo sapiens); experiment: Inhibition of recombinant human PPM1A using pNPP as substrate preincubated for 15 mins followed by substrate addition measured after 20 mins by absorbance based assay
pIC50: −log10 of the molar value.
MEASURE NAME: pIC50

[
  {
    "COMPOUND": "COc1ccc2c(c1)c[n+](CCCO)c1ccc(F)cc21",
    "MEASURE NAME": "pIC50",
    "MEAS VALUE": "< 5.00"
  },
  {
    "COMPOUND": "COc1ccc2c(c1)c[n+](CCO)c1cc(F)ccc21",
    "MEASURE NAME": "pIC50",
    "MEAS VALUE": "< 4.70"
  },
  {
    "COMPOUND": "CCOc1ccc2c(c1)c[n+](CCO)c1ccc(F)cc21.[Br-]",
    "MEASURE NAME": "pIC50",
    "MEAS VALUE": 6.74
  }
]

Reported Protein phosphatase 1A (Homo sapiens) pIC50 for item CCCCOc1ccc2c(c1)c[n+](CCO)c1ccc(F)cc21 was 5.45

# value of pIC50, Protein phosphatase 1A (Homo sapiens), item COc1ccc2c(c1)c[n+](CC(C)O)c1ccc(F)cc21 (stereo unspecified) = < 4.70

Log: Protein phosphatase 1A (Homo sapiens), compound COc1ccc2c(c1)c[n+](CCO)c1ccc(C)cc21 , pIC50 = < 4.70
